# assay-text: yeast display, Sf9 membrane polyspecificity reagent, FACS + sequencing; frameworks hold sequencing errors
property-label: polyreactivity (PSR sort gate)

Below, 5 sequences whose answers are already recorded.
sequence-content: QVQLVESGGGLVQAGGSLRLSCAASGSTFVENAMGWYRQAPGKERELVAAITSSGGSTYYADSVKGRFSNSRDNAMNTVYLQMNSLKPEDTSVDYCGVDYIYDDAYNYWGQGTQVTVSS
property-label: polyreactivity (PSR sort gate)
observed-value: high polyreactivity
--
sequence-content: QVQLVESGGGLVQAGGSLRLSCAASGLTFYWYAMGWYRQAPGKERELVAAITSTGSTYYADSVKGRFTISRDNAKNTVYLQMNSLKPEDTAVYYCNADFPANWGWDYDYWGQGTQVTVSS
property-label: polyreactivity (PSR sort gate)
observed-value: low polyreactivity
--
sequence-content: QVQLVESGGGLVQAGGSLRLSCAASGRIFYLYAMGWYRQAPGKERELVAAITWSGGSTTYADSVKGRFTISRDNAKNTFYLQMNSLKPEDTAVYYCNADGWSFPSFSPMDYWGQGTQVTVSS
property-label: polyreactivity (PSR sort gate)
observed-value: low polyreactivity
--
sequence-content: QVQLVESGGGLVQAGGSLRLSCAASGSTPVYAMGWYRQAPGKERELVAAIRRRASSTYYADSVKGRFTISRDNAKNPVYLQMNSLKPEDTAVYYCAVGRVNGVLLGYWGQGTQVTVSS
property-label: polyreactivity (PSR sort gate)
observed-value: high polyreactivity
--
sequence-content: QVQLVESGRGLVQAGGSLRLSCAASGRTVTNNVLGWYRQAPGKEREFVASISSGGGSTYYADSVKGRFTISRDNANNTVYVQMNSLKPEDTAVYYCAAGYWWRYALYGYWGQGTQVTVSS
property-label: polyreactivity (PSR sort gate)
observed-value: low polyreactivity

Q: Fill blank: measured polyreactivity (PSR sort gate) of the sequence `QVQLVESGGGLVQAGGSLRLSSAASGRIFTINAMGWYRQAPGKERELFASSRSTGGSTYYADSVKGRFTISRDNAKNTFYLQMYSLKPVDTAVYYCDAQYANSIDYRSSYRRDYWGQGTQVTVSS` is ____.
A: low polyreactivity

Q: Which polyreactivity (PSR sort gate) value is on record for `QVQLVESGGGLVQAGGSLRLSCAASGSTFYRNAMGWYRQAPGKERELVAGITSGVTTYYADSVKGRFTISRDNAKNTVYLQMNSLKPEDSAVYYCAVYWRGRGAFTYGSWGQGTQVTVSS` ?
A: high polyreactivity

Q: What measured polyreactivity (PSR sort gate) goes with `QVQLVESGGGLVQAGGSLRLSCAPSGRYYAMGWNRQAPGKEREMVAAISSGGSTNYADSVKGRFTISRDNAKNTVYLQMNSLKPEDTAVYYCAALIRQLRYYLYYYWGQGTQVTVSS` ?
A: high polyreactivity

Q: Look up polyreactivity (PSR sort gate) for this sequence: `QVQLVESGGGLVQAGGSLRLSCAASGFIFGSNAMGWYRQAPGKERELVAAISRSGGSTYYADSVKGRFTISRDNAKNTVYLQMNSLKPEDTAVYYCASYLYKSRYLPEYDYWGQGTQVTVSS`
A: high polyreactivity

Q: Requested field: polyreactivity (PSR sort gate). Item: `QVQLVESGGGLVQAGGSLRLSSAASGGIFWYYTMGWYRQAPGKERELVAAISWSGGRTYYADSVKGRFTISRDNAKNTVYLQMNSLKPEDTAVYYCAANFRGVLGWYHYEYWGQGTQVTVSS`
A: high polyreactivity

Q: Find the recorded polyreactivity (PSR sort gate) belonging to `QVQLVESGVGLVQAGGSIRLSCAASGRTFRYYTMGWYRQAPGKEREFVAAISSTGGTYYADSVKGRFTISRDNAKNTVYLQMNSLKPEDTAVYYCAATFIQVVVNVQLYDYDYWGQGTQVSVSS` and report it.
A: low polyreactivity

---

# assay-text: yeast display, Sf9 membrane polyspecificity reagent, FACS + sequencing; frameworks hold sequencing errors
property-label: polyreactivity (PSR sort gate)

Example sequences with recorded polyreactivity (PSR sort gate):
sequence-content: QVQLVESGGGLVQAGGSLRLSCAASGSIYDSYAMGWYRQAPGKERELVATINTSGGSTYYADSVKGRFTIHDNAKNTVYLQMNSLKPEDTAVYYCNAGRWVYWQNNFGDYGYWGQGTQVTVSS
polyreactivity (PSR sort gate): low polyreactivity
--
sequence-content: QVQLVESGGGLVQAGGSLRLSCAASGSTFSSNAMGWYRQAPGKERELVAAISSGGSTNYADSVKGRFTISRDNAKNTVYLQMNSLKPEDTAVYYCAADRSPEYYWGQGTQVTVSS
polyreactivity (PSR sort gate): low polyreactivity
--
sequence-content: QVQLVESGGGVVHAGGSLLLSCAASGRTFFRYVKGWYRQEPGKERELVAAISTRGGSTYYADSVKGRFTISRDNAKNTVYLQMNSLKPEDSAVYYCAADVPTGYDYWGQGTQVTVSS
polyreactivity (PSR sort gate): high polyreactivity
--
sequence-content: QVQLVESGGGLVQEGGSLRLSCAASGRILYGYAMGWYRQAPGKERELVASITSSGGSKYADSVKGRFTISRDNAKNTVYLQMNSLKPEDTAVYYGATRRGPKWQWLTYGYWGQGTQVTVSS
polyreactivity (PSR sort gate): low polyreactivity
--
sequence-content: QVQLVESGGGLVQAGGSLRLSCAASGSIFPSNAMGWYRQAPGKERELVAAINRDGITNYADSVKGRFTISRDNAKNTVYLQMNSLKPEDTAVYYCNAYNYDFYASFWYEVDYWGLGTQVTVSS
polyreactivity (PSR sort gate): low polyreactivity

Q: Bench note: what polyreactivity (PSR sort gate) did `QVQLVESGGGLVQAGGSLRLICAASGNTFNVYAMVWYRHAPGKERELVAAITLSGGSTYYADSVKGRFTISRDNAKNTVYLQMNSLKPEDTAVYYCNAEDDGTDYDYWGQGTQVTVSS` show?
A: low polyreactivity

Q: So what's the measured polyreactivity (PSR sort gate) for this one? `QVQLVESGGGLVQAGGSLRLSCAASGRTFTNNAMGWYRQAPGKERELVAAIRWSGGYTYYADSVKGRFTISRDNAKNTVYLQMNSQKPEDTAVYYCAKGYGYVEAVIVQYDYWGQGSQVTVSS`
A: low polyreactivity

Q: What polyreactivity (PSR sort gate) value was documented for this sequence, `QVQLVESGGGLVQAGGSLRLSCAASGSIFGLYAMGWYRQAPGKERELVAAISGSGSRTYYADSVKGRFTISRDNAKNTVYLQMNSLKPEDTAVYYCAADRYWYGVHASIYYYWGQGTQVTVSS` ?
A: high polyreactivity

---

# assay-text: yeast display, Sf9 membrane polyspecificity reagent, FACS + sequencing; frameworks hold sequencing errors
property-label: polyreactivity (PSR sort gate)

Solved cases below.
sequence-content: QVQLVESGGCLVQAGGSLRLSCAASGRIIYSNGMGWYRQAPGKERELVAAISSGGSTYYADSVKGRFTISRDNAKNTVYLQMNSLKPEDTAVYYCNKDYLLRHYYIYVIEGDYWGQGTQVTVSS
polyreactivity (PSR sort gate): low polyreactivity

sequence-content: QVQLVESGGGLVQAGGSLRLSCAASGLTFPPYAMGWSRQAPGNERELVAAISRIRGRTYYADSVKGRFTISRDTAKNTVYLQMNSLKPEDTAVYYCAADGIKGGDEYDYWGQGTQVTVSS
polyreactivity (PSR sort gate): high polyreactivity

sequence-content: QVQLVESGGGLVQAGGSLSLSCAASGFIFNYYVMGWYRQAPGKERELVATISWRGGRTYYADSVKGRFTISRDNAKNTVYLQMNSLKPEDTAVYYCAKDSYYFTRYDYWGQGTQVTVSS
polyreactivity (PSR sort gate): low polyreactivity

sequence-content: QVQLVESGGGLVQAGGSLRLSCAASGFNYYRYVMVWYRQAPGKERELVAAITTSGGSTYYADSVKGRFTISRDNAKNTVYLQMNSLKPEDTAVYYCAAVYIPSRQWYDYWGQGTQVTVSS
polyreactivity (PSR sort gate): high polyreactivity

sequence-content: QVQLVESGGGLVQAGGSLRLSCAASGSIFPDYAMGWYRTAPGKERELVAAISWDGGRTYYADSVKGRFTISRDNAKNTVYLQMNSLKPEDTAVYYCYWYDYWGQGTQVTVSS
polyreactivity (PSR sort gate): high polyreactivity

Q: What measured polyreactivity (PSR sort gate) goes with `QVQLVESGGGLVQAGGSLRLSCDASGRIFYRYVMGWYRQAPGKERELVAAIRNSGGSTYYADSVKGRFTISRDNAKNTVYLQMNSMKPEDTAVYYCAKRYGTSFYVGSAKIGYDYWGQGTQVTLSS` ?
A: high polyreactivity

Q: Request the reported polyreactivity (PSR sort gate) associated with `QVQLVESGGGLVQAGGSLRLSCAASGSTFYSNVMGWYRQAPGKERELVAAISQSGGRTFYADSVKGRFTISRDNAKNTVYLQMNSLKPEDTAVYYCNNVRAQPRNPYDYWGQGTQVTVSS`
A: high polyreactivity

Q: Data request, read-out polyreactivity (PSR sort gate), for `QVQLVESGGGLVQAGGSLRLSCAASGSIFRIYAMGWYRQAPGKERELVAAISFSTGSRTYYADSVKGRFTISRDNAKNTVYLQMNSLKPEDTAVFYCNAESYYDYNYWGQGTQVTVSS`
A: low polyreactivity

Q: Record request: polyreactivity (PSR sort gate) value, item `QVQLVESGGGLVQAGGSLRLSCAASGFTFVGYAMGWYRQAPGKERELVAAITRRGGSTYYADSVKGRFTISRDNAKNTVYLQMNSLKPEDTGVYDCNKASYRISVPRYDYWGQGTQVTVSS`
A: high polyreactivity

Q: Query: polyreactivity (PSR sort gate); subject: `QVQLVESGGGLVQAGGSLRLSCAASGSTFYRNAMGWYRQAPGKERELVAGISYGGGSTYYADSVKGRFTISRDNAKNTVYLQMNSLKPEDTAVYYCNAVWVKRHYYYWGQGTQVTVSS`
A: low polyreactivity

Q: Can you share its polyreactivity (PSR sort gate)? I mean this sequence: `QVQLVESGGGLVQAGGSLRLSCAASGSTFFYYDMGWYRQAPGKERELVAAITSGGSTYYADSVKGLFTISRDNAKNTVYLHMNSLKPEDTAVYYCNAESYFWDFYDYDHWGQGTQVTVSS`
A: low polyreactivity
